Below, each entry is listed alongside its reported Blood anticoagulating activity (PT2).
# Tested on: blood plasma
# experiment: Determination of blood anticoagulating activity by prothrombin time (PT)
# Type: biochemical, human
# Design: key: -log of concentration doubling control PT
# experimental setup: Table 3; same manner as Example 184; negative logarithm of concentration doubling PT

| given smiles | Blood anticoagulating activity (PT2) |
| --- | --- |
| N=C(N)c1ccc(CC(=O)C(=O)O)c(OC[C@@H](CC(=O)O)NC(=O)c2ccc(S(=O)(=O)N3CCCC3)cc2)c1.O=C(O)C(F)(F)F | 5.9 |
| N=C(N)c1ccc(C(=O)N[C@@H](COc2cc(C(=N)N)ccc2CC(=O)C(=O)O)CC(=O)O)cc1.O=C(O)C(F)(F)F.O=C(O)C(F)(F)F | 5.9 |
| N=C(N)c1ccc(CC(=O)C(=O)O)c(OC[C@@H](CC(=O)O)NC(=O)c2ccc(C(=O)N3CCCC3)cc2)c1.O=C(O)C(F)(F)F | 6.0 |
| CC(=N)N1CCC(Oc2ccc(C(=O)N[C@@H](COc3cc(C(=N)N)ccc3CC(=O)C(=O)O)CC(=O)O)cc2)CC1.O=C(O)C(F)(F)F.O=C(O)C(F)(F)F | 6.2 |
| CN(C)C(=O)c1ccc(C(=O)N[C@@H](COc2cc(C(=N)N)ccc2CC(=O)C(=O)O)CC(=O)O)cc1.O=C(O)C(F)(F)F | 5.7 |

----------
# target under test: activated human blood coagulation factor X (Homo sapiens, UniProt P00742)
# Construct: purchased Enzyme Research Co
# Sequence (P00742 235-488 limits assumed): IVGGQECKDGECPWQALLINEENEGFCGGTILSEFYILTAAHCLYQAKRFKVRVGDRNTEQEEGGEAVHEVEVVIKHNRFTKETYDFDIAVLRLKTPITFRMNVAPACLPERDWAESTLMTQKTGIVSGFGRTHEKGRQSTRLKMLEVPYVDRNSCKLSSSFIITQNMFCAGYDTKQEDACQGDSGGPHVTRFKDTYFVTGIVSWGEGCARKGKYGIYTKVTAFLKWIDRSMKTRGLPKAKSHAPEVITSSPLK
# Sequence (P00742 41-179 partner limits assumed): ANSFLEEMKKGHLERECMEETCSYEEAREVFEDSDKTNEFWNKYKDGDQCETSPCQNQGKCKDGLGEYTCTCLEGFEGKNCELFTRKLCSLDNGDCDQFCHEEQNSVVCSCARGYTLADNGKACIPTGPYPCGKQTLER
# experiment: Determination of activity of inhibiting the activated blood coagulation factor X
# Format: biochemical
# experimental setup: Table 2; same manner as Example 93; read-out: Activity of inhibiting activated blood coagulation factor X (pIC50) (converted)

| compound | IC50, nM |
| --- | --- |
| CC(=N)N1CCC(Oc2ccc(C[C@@H](COc3cccc(C(=N)N)c3)NS(=O)(=O)c3ccc4ccccc4c3)cc2)CC1 [Compound of Ex. 162, bistrifluoroacetate] | 251 |
| N=C(N)c1ccc(C(=O)NCCCOc2cccc(C(=N)N)c2)cc1.O=C(O)C(F)(F)F.O=C(O)C(F)(F)F [Compound of Ex. 122, bistrifluoroacetate] | 501 |
| N=C(N)c1cccc(OCCNC(=O)c2cccc(C(=N)N)c2)c1 [Compound of Ex. 96, bistrifluoroacetate] | 1580 |

----------
Below, each entry is listed alongside its reported IC50.
# target under test: activated human blood coagulation factor X (Homo sapiens, UniProt P00742)
# Construct: purchased Enzyme Research Co
# experiment: Determination of activity of inhibiting the activated blood coagulation factor X
# Type: biochemical
# experimental setup: Table 2; same manner as Example 93; read-out: Activity of inhibiting activated blood coagulation factor X (pIC50) (converted)
observed property: IC50 (nM)

| compound | quantitative readout |
| --- | --- |
| CCS(=O)(=O)N[C@H](COc1cccc(C(=N)N)c1)Cc1ccc(OC2CCN(C(C)=N)CC2)cc1 [Compound of Ex. 160, bistrifluoroacetate] | 316 |
| N=C(N)c1ccc(CC(=O)C(=O)O)c(OC[C@H](Cc2ccc(OC3CCNCC3)cc2)NS(=O)(=O)c2ccccc2)c1.O=C(O)C(F)(F)F.O=C(O)C(F)(F)F [Compound of Ex. 180, bistrifluoroacetate] | 158 |
| N=C(N)c1ccc(C(=O)NCCOc2cc(C(=N)N)ccc2CC(=O)C(=O)O)cc1 [Compound of Ex. 147, bistrifluoroacetate] | 39.8 |
| N=C(N)c1ccc(C(=O)N[C@@H](COc2cccc(C(=N)N)c2)CC(=O)O)cc1 [Compound of Ex. 119, bistrifluoroacetate] | 25.1 |
| N=C(N)c1cccc(OC[C@H](Cc2ccc(OC3CCNCC3)cc2)NS(=O)(=O)c2ccccc2)c1.O=C(O)C(F)(F)F.O=C(O)C(F)(F)F [Compound of Ex. 154, bistrifluoroacetate] | 1580 |

----------
Below, each entry is listed alongside its reported IC50.
# target under test: human thrombin (Homo sapiens)
# Construct: human thrombin (a product of SIGMA Co.); purchased SIGMA Co
# experiment: Determination of thrombin-inhibiting activity
# Type: biochemical
# experimental setup: Table 2; same manner as Example 94; read-out: Thrombin-inhibiting activity (pIC50) (converted)

| molecule | display unit | result modifier | IC50 |
| --- | --- | --- | --- |
| CC(=N)N1CCC(Oc2ccc(C[C@@H](COc3cccc(C(=N)N)c3)NS(=O)(=O)c3ccccc3)cc2)CC1.O=C(O)C(F)(F)F.O=C(O)C(F)(F)F [Compound of Ex. 158, bistrifluoroacetate] | µM | = | 50.1 |
| N=C(N)c1ccc(C(=O)N[C@@H](COc2cccc(C(=N)N)c2)CC(=O)O)cc1 [Compound of Ex. 119, bistrifluoroacetate] | µM | > | 1000 |
| CC(=N)N1CCC(Oc2ccc(C(=O)NCCOc3cccc(C(=N)N)c3)cc2)CC1.O=C(O)C(F)(F)F.O=C(O)C(F)(F)F [Compound of Ex. 99, bistrifluoroacetate] | µM | = | 316 |
| N=C(N)c1ccc(C(=O)NCCCOc2cccc(C(=N)N)c2)cc1.O=C(O)C(F)(F)F.O=C(O)C(F)(F)F [Compound of Ex. 122, bistrifluoroacetate] | µM | > | 1000 |
| N=C(N)c1cccc(OCCNC(=O)c2ccc(CN)cc2)c1.O=C(O)C(F)(F)F.O=C(O)C(F)(F)F [Compound of Ex. 98, bistrifluoroacetate] | µM | = | 631 |

----------
# target under test: human thrombin (Homo sapiens, UniProt P00734)
# Construct: human thrombin (a product of SIGMA Co.); purchased SIGMA Co
# experiment: Determination of thrombin-inhibiting activity
# Type: biochemical
# experimental setup: Table 2; same manner as Example 94; read-out: Thrombin-inhibiting activity (pIC50) (converted)

| molecule | IC50 |
| --- | --- |
| CC(=N)N1CCC(Oc2ccc(C[C@@H](CCc3cccc(C(=N)N)c3)NS(=O)(=O)c3ccccc3)cc2)CC1.O=C(O)C(F)(F)F.O=C(O)C(F)(F)F [Compound of Ex. 175, bistrifluoroacetate] | 63.1 µM |
| CC(=N)N1CCC(Oc2ccc(C[C@@H](COc3cccc(C(=N)N)c3)NS(=O)(=O)c3ccc4ccccc4c3)cc2)CC1 [Compound of Ex. 162, bistrifluoroacetate] | 39.8 µM |
| N=C(N)c1ccc(C(=O)N[C@H](CCC(=O)O)COc2cccc(C(=N)N)c2)cc1 [Compound of Ex. 121, bistrifluoroacetate] | > 1000 µM |
| N=C(N)c1cccc(OCCNC(=O)c2cccc(C(=N)N)c2)c1 [Compound of Ex. 96, bistrifluoroacetate] | > 1000 µM |
| N=C(N)c1cccc(OC[C@H](Cc2ccc(OC3CCNCC3)cc2)NS(=O)(=O)c2ccccc2)c1.O=C(O)C(F)(F)F.O=C(O)C(F)(F)F [Compound of Ex. 154, bistrifluoroacetate] | 79.4 µM |
| CC(=N)N1CCC(Cc2ccc(C[C@@H](COc3cccc(C(=N)N)c3)NS(=O)(=O)c3ccccc3)cc2)CC1.O=C(O)C(F)(F)F.O=C(O)C(F)(F)F [Compound of Ex. 165, bistrifluoroacetate] | 100 µM |
| N=C(N)c1ccc(C(=O)N(CCOc2cccc(C(=N)N)c2)Cc2ccccc2)cc1 [Compound of Ex. 114, bistrifluoroacetate] | 79.4 µM |
| CC(=N)N1CCC(Oc2ccc(C[C@@H](COc3cccc(C(=N)N)c3)NS(=O)(=O)c3ccc(C(=O)O)cc3)cc2)CC1.O=C(O)C(F)(F)F.O=C(O)C(F)(F)F [Compound of Ex. 168, bistrifluoroacetate] | 79.4 µM |
| CC(=N)N1CCC(Oc2ccc(C[C@@H](COc3cccc(C(=N)N)c3)NS(=O)(=O)c3ccc(/C=C/C(=O)O)cc3)cc2)CC1.O=C(O)C(F)(F)F.O=C(O)C(F)(F)F [Compound of Ex. 171, bistrifluoroacetate] | 39.8 µM |
| CC(=N)N1CCC(Oc2ccc(C[C@@H](COc3cc(C(=N)N)ccc3CC(=O)C(=O)O)NS(=O)(=O)c3ccccc3)cc2)CC1.O=C(O)C(F)(F)F.O=C(O)C(F)(F)F [Compound of Ex. 181, bistrifluoroacetate] | 1.58 µM |

----------
# target under test: activated human blood coagulation factor X (Homo sapiens)
# Construct: purchased Enzyme Research Co
# experiment: Determination of activity of inhibiting the activated blood coagulation factor X
# Format: biochemical
# experimental setup: Table 1; negative logarithm of concentration inhibiting 50% of initial rate; Tris-HCl pH 8.4, room temperature
Below, each entry is listed alongside its reported Activity of inhibiting activated blood coagulation factor X (pIC50).
observed property: Activity of inhibiting activated blood coagulation factor X (pIC50)

| molecule | target under test | quantitative readout |
| --- | --- | --- |
| CC(=N)N1CCC(Oc2ccc(C(=O)N[C@@H](COc3cccc(C(=N)N)c3)CC(=O)O)cc2)CC1.O=C(O)C(F)(F)F.O=C(O)C(F)(F)F [Compound of Ex. 62] | activated human blood coagulation factor X (Homo sapiens) | 7.4 |
| CCOP(=O)(O)c1ccc(S(=O)(=O)N[C@H](COc2cccc(C(=N)N)c2)Cc2ccc(OC3CCN(C(C)=N)CC3)cc2)cc1.O=C(O)C(F)(F)F.O=C(O)C(F)(F)F [Compound of Ex. 73] | activated human blood coagulation factor X (Homo sapiens) | 8.1 |
| N=C(N)c1ccc(C(=O)Nc2cccc(COc3cccc(C(=N)N)c3)c2)cc1.O=C(O)C(F)(F)F.O=C(O)C(F)(F)F [Compound of Ex. 69] | activated human blood coagulation factor X (Homo sapiens) | 6.6 |
| CC(=N)N1CCC(Oc2ccc(C[C@@H](COc3cccc(C(=N)N)c3)NS(=O)(=O)c3ccc(P(=O)(O)O)cc3)cc2)CC1.O=C(O)C(F)(F)F.O=C(O)C(F)(F)F [Compound of Ex. 74] | activated human blood coagulation factor X (Homo sapiens) | 7.6 |
